- SYSTEM TESTED: T1, human PD-L1 on hPD-L1/CHO-K1 overexpressing cells (human, UniProt Q9NZQ7 19-290)
- T1 construct: whole, on cells; also called human PD-L1-expressing cells
- T1 sequence (Q9NZQ7 19-290): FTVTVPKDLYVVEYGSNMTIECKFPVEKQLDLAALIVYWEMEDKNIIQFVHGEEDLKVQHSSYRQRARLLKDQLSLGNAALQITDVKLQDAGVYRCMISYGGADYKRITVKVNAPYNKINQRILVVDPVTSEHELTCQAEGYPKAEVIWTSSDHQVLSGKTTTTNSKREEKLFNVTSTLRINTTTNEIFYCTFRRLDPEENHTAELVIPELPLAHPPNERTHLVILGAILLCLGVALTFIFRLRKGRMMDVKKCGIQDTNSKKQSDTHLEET
- ASSAY COMMENT: flow cytometry on hPD-L1/CHO-K1 cells (sheet label hPD-1/CHO-K1)
- Description: For flow cytometry, overexpressing cell lines (hPD-L1/CHO-K1, mPD-L1/CHO-K1), established by introducing human and. mouse PD-L1 genes into CHO-K1 cells, were used. […] As a positive control group, fluorescence labeling was conducted using FITC-conjugated anti-human PD-L1 antibody (#558065, BD Biosciences) and PE-conjugated anti-mouse […] (#558091, BD Biosciences). The cell-binding ability of the optimized anti-PD-L1 antibody was measured through flow cytometry. […]
Measured Mean, all events accompanies every entry in the list below.
Just the number.

Examples from the recorded data:
{"BINDER": "ME4.B10 anti-PD-L1 antibody (IgG form) (antibody, V domains shown) VH: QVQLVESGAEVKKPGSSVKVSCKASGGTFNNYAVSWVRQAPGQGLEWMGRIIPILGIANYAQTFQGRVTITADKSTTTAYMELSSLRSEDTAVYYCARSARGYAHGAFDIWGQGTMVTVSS VL: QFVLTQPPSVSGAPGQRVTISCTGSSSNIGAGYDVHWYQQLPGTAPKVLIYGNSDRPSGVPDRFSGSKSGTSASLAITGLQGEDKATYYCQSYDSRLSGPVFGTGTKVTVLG", "Mean, all events": 14.2}
{"BINDER": "ME4.A2 anti-PD-L1 antibody (IgG form) (antibody, V domains shown) VH: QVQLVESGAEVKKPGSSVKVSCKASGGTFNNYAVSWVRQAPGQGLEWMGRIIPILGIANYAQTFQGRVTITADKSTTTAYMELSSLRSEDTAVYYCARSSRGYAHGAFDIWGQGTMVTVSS VL: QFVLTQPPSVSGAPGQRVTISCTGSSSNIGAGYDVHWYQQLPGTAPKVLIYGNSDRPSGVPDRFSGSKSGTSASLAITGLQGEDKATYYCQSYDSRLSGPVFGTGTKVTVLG", "Mean, all events": 26.4}
{"BINDER": "ME4.A12 anti-PD-L1 antibody (IgG form) (antibody, V domains shown) VH: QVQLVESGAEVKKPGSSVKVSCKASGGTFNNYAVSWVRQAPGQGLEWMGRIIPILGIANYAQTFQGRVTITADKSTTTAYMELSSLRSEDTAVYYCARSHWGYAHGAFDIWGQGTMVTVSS VL: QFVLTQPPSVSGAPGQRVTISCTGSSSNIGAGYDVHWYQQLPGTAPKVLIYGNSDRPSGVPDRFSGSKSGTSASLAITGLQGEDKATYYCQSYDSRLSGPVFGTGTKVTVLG", "Mean, all events": 12.9}
{"BINDER": "ME4 anti-PD-L1 antibody (IgG form) (antibody, V domains shown, Converted to IgG with the vectors pIgGHD-6A6Hvy and pIgGLD-6A6Lgt; Expressed in Expi293F cells) VH: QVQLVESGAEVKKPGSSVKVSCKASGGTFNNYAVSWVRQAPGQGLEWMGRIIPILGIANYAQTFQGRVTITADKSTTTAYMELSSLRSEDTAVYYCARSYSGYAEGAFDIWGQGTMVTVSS VL: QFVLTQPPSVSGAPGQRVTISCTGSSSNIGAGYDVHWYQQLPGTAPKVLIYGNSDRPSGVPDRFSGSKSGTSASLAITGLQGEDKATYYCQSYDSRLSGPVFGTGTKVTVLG", "Mean, all events": 33.6}
{"BINDER": "ME4.A11 anti-PD-L1 antibody (IgG form) (antibody, V domains shown) VH: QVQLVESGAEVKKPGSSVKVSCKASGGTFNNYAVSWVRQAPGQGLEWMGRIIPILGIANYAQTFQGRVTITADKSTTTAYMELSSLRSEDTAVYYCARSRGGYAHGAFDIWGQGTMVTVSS VL: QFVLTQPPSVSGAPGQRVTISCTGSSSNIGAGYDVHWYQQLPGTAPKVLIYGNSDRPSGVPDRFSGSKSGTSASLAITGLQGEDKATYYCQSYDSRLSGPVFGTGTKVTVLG", "Mean, all events": 14.7}

# evaluate next
Which Mean, all events value is on record for ME4.B12 anti-PD-L1 antibody (IgG form) (antibody, V domains shown) VH: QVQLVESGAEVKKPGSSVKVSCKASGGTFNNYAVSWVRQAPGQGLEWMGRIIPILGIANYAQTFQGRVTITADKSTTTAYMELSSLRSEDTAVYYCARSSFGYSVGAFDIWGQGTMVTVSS VL: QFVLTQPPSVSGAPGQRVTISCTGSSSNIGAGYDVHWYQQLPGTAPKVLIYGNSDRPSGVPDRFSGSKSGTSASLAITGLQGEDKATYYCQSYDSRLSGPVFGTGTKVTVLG ?
28.9
